System: CP250
Test: qHTS profiling for inhibitors of Plasmodium falciparum proliferation (AID 504749); note: nearly all actives have a fitted effect of over 60% in size
Settings: P. falciparum in erythrocytes, SYBR Green DNA, 72 h; series mostly up to 28.7 µM
Inconclusive results are not listed. The source made the active and inactive calls. Calls come from the whole dose curve; as a rule, active = well fitted inhibition curve with a large enough effect; inconclusive = small, poorly fitted or top-dose-only effect; inactive = flat fitted curve, though single readings scatter.
Hi! Could you answer with just one of these? yes (active), no (inactive)

Query string: Name the outcome recorded for Nc1ccc(S(=O)(=O)Nc2ccnn2-c2ccccc2)cc1 in the assay.
Result string: no

Query string: Name the outcome recorded for Cc1oncc1C(=O)Nc1ccc(C(F)(F)F)cc1 in the assay.
Result string: no

Query string: Name the outcome recorded for Cc1[nH]c(=O)c(C#N)cc1-c1ccc2nccn2c1 in the assay.
Result string: no

Query string: Name the outcome recorded for Nc1nc2c(ncn2COCCO)c(=O)[nH]1 in the assay.
Result string: no

Query string: Name the outcome recorded for N[C@@H]1CONC1=O in the assay.
Result string: no

Query string: Name the outcome recorded for CC(C)NCC(O)COc1ccc(COCCOC(C)C)cc1 (configuration not stated) in the assay.
Result string: no

Query string: Name the outcome recorded for NC(=O)c1cnccn1 in the assay.
Result string: no

Query string: Name the outcome recorded for CN1CCN(CCCN2c3ccccc3Sc3ccc(C(F)(F)F)cc32)CC1 in the assay.
Result string: yes

Query string: Name the outcome recorded for CCCc1nc2c(C)cc(-c3nc4ccccc4n3C)cc2n1Cc1ccc(-c2ccccc2C(=O)O)cc1 in the assay.
Result string: no

Query string: Name the outcome recorded for Cc1c(C)c2c(c(C)c1O)CCC(C)(COc1ccc(CC3SC(=O)NC3=O)cc1)O2 (configuration not stated) in the assay.
Result string: no

Query string: Name the outcome recorded for CCc1ccc(CCOc2ccc(CC3SC(=O)NC3=O)cc2)nc1 (configuration not stated) in the assay.
Result string: no

Query string: Name the outcome recorded for O=C1CCC(N2C(=O)c3ccccc3C2=O)C(=O)N1 (configuration not stated) in the assay.
Result string: no

Query string: Name the outcome recorded for Clc1ccc(Nc2nnc(Cc3ccncc3)c3ccccc23)cc1 in the assay.
Result string: no

Query string: Name the outcome recorded for COc1ccc2nc(S(=O)Cc3ncc(C)c(OC)c3C)[nH]c2c1 (configuration not stated) in the assay.
Result string: no

Query string: Name the outcome recorded for CCOC(=O)N1CCC(=C2c3ccc(Cl)cc3CCc3cccnc32)CC1 in the assay.
Result string: yes

Query string: Name the outcome recorded for NCCCC(N)(C(=O)O)C(F)F (configuration not stated) in the assay.
Result string: no

Query string: Name the outcome recorded for Clc1cccc(Cl)c1NC1=NCCN1 in the assay.
Result string: no

Query string: Name the outcome recorded for CNC[C@H](O)c1cccc(O)c1 in the assay.
Result string: no

Query string: Name the outcome recorded for N=c1nc(N2CCCCC2)cc(N)n1O in the assay.
Result string: no

Query string: Name the outcome recorded for CCCc1nn(C)c2c(=O)[nH]c(-c3cc(S(=O)(=O)N4CCN(C)CC4)ccc3OCC)nc12 in the assay.
Result string: no

Query string: Name the outcome recorded for O=c1n(CCCN2CCN(c3cccc(Cl)c3)CC2)nc2ccccn12 in the assay.
Result string: no

Query string: Name the outcome recorded for O=NN(CCCl)C(=O)NCCCl in the assay.
Result string: no

====

Assay: qHTS profiling for inhibitors of Plasmodium falciparum (DD2) proliferation (AID 743323)
Conditions: lower = more inhibition; at 28.7 µM (top of the series) unless noted
activity, percent of control under 80% gets 1, anything at or over 80% gets 0.

Query string: Lab log: compare recorded activity, percent of control with 80%; is it strictly lower for COc1ccccc1[C@H](c1cccc2ccccc12)[C@@](C)(C#N)C(=O)N1CCC(c2cccc(C(F)(F)F)c2)CC1 ?
Result string: 1

Query string: Lab log: compare recorded activity, percent of control with 80%; is it strictly lower for Cn1cnc2c(F)c(Nc3ccc(Br)cc3Cl)c(C(=O)NOCCO)cc21 ?
Result string: 0

Query string: Lab log: compare recorded activity, percent of control with 80%; is it strictly lower for CC(C)OC(=O)C1=CN(C(=O)c2ccc(F)c(F)c2)CC(C)(C)c2c1[nH]c1ccccc21 ?
Result string: 1

Query string: Lab log: compare recorded activity, percent of control with 80%; is it strictly lower for CN(C)c1ccc(Nc2nc(N)n(C(=O)c3c(F)cccc3F)n2)cc1 ?
Result string: 1

Query string: Lab log: compare recorded activity, percent of control with 80%; is it strictly lower for COc1ccc(-c2ccc3c(N4CCOCC4)nc(N4C[C@@H](C)O[C@@H](C)C4)nc3n2)cc1CO ?
Result string: 1

Query string: Lab log: compare recorded activity, percent of control with 80%; is it strictly lower for O=C1[C@H](Cc2ccc(O)cc2)N2C(=O)CCN(C(=O)NCc3ccccc3)[C@H]2CN1Cc1cccc2ccccc12 ?
Result string: 1

Query string: Lab log: compare recorded activity, percent of control with 80%; is it strictly lower for Cc1cc(C=c2sc3nc4ccccc4n3c2=O)c(C)n1-c1ccccc1 ?
Result string: 0

Query string: Lab log: compare recorded activity, percent of control with 80%; is it strictly lower for Cc1ccc(NC(=O)c2cccc(C(C)(C)C#N)c2)cc1Nc1ccc2ncn(C)c(=O)c2c1 ?
Result string: 1

Query string: Lab log: compare recorded activity, percent of control with 80%; is it strictly lower for O=C(OCC#CCSc1nnc(-c2ccc3ccccc3c2)o1)c1cc2ccccc2s1 ?
Result string: 0

Query string: Lab log: compare recorded activity, percent of control with 80%; is it strictly lower for CNC(=O)c1ccc(N2C(=S)N(c3ccc(C#N)c(C(F)(F)F)c3)C(=O)C2(C)C)cc1F ?
Result string: 0

Query string: Lab log: compare recorded activity, percent of control with 80%; is it strictly lower for CCC(C)n1ncn(-c2ccc(N3CCN(c4ccc(OC[C@H]5CO[C@](Cn6cncn6)(c6ccc(Cl)cc6Cl)O5)cc4)CC3)cc2)c1=O (some centres not stated) ?
Result string: 1

Query string: Lab log: compare recorded activity, percent of control with 80%; is it strictly lower for CN(C(=O)c1ccc(F)cc1C(F)(F)F)C1CCN(c2nnc(-c3ccnn3C)c3ccccc23)CC1 ?
Result string: 1

Query string: Lab log: compare recorded activity, percent of control with 80%; is it strictly lower for COc1ccc(-c2c(-c3ccc(O)cc3O)n[nH]c2C)cc1 ?
Result string: 1

Query string: Lab log: compare recorded activity, percent of control with 80%; is it strictly lower for Cc1ccccc1C(C(=O)NC1CCCC1)N(C(=O)Cn1cnc2ccccc21)c1cccc(F)c1 (configuration not stated) ?
Result string: 1

Query string: Lab log: compare recorded activity, percent of control with 80%; is it strictly lower for Cc1ccc2c(c1)C(=O)[C@@]1(O)CCN(c3ccccc3)C1=N2 ?
Result string: 0

Query string: Lab log: compare recorded activity, percent of control with 80%; is it strictly lower for Nc1nc2[nH]cc(CCc3ccc(C(=O)N[C@@H](CCC(=O)O)C(=O)O)cc3)c2c(=O)[nH]1 ?
Result string: 1

Query string: Lab log: compare recorded activity, percent of control with 80%; is it strictly lower for CCCCCCCc1ccc(CCc2cccc(O)c2C(=O)O)cc1 ?
Result string: 0

Query string: Lab log: compare recorded activity, percent of control with 80%; is it strictly lower for CCCS(=O)(=O)Nc1ccc(F)c(C(=O)c2c[nH]c3ncc(-c4ccc(Cl)cc4)cc23)c1F ?
Result string: 1

Query string: Lab log: compare recorded activity, percent of control with 80%; is it strictly lower for Nc1nccc(-c2ccc3noc(-c4ccc(Cl)cc4)c3c2)n1 ?
Result string: 1

Query string: Lab log: compare recorded activity, percent of control with 80%; is it strictly lower for CCc1cncnc1N1CCN(Cc2nc3ccc(C(F)(F)F)cc3[nH]2)CC1 ?
Result string: 1

Query string: Lab log: compare recorded activity, percent of control with 80%; is it strictly lower for Fc1ccc(Cl)cc1-c1nc(Nc2ccncc2)c2nccnc2n1 ?
Result string: 1

Query string: Lab log: compare recorded activity, percent of control with 80%; is it strictly lower for Cc1cc(Nc2nc(N[C@@H](C)c3ncc(F)cn3)ncc2Cl)n[nH]1 ?
Result string: 0

Query string: Lab log: compare recorded activity, percent of control with 80%; is it strictly lower for Cc1ccnc(NS(=O)(=O)c2ccc(NC(=O)Nc3ccc(S(=O)(=O)Nc4nccc(C)n4)cc3)cc2)n1 ?
Result string: 1

Query string: Lab log: compare recorded activity, percent of control with 80%; is it strictly lower for CC[C@@H](C)[C@H](NC(=O)[C@H](CC1CCCCC1)NC(=O)c1ccno1)C(=O)N1CCC2(CCc3ccccc32)CC1 ?
Result string: 1

Query string: Lab log: compare recorded activity, percent of control with 80%; is it strictly lower for CCOc1ccc(Cc2cc([C@@H]3O[C@H](CO)[C@@H](O)[C@H](O)[C@@H]3O)ccc2Cl)cc1 ?
Result string: 0
